Attribute: growth inhibition
- protocol_text: NCI Yeast Anticancer Drug Screen. Data for the rad50 strain (AID 155);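 note: 0% = growth of vehicle-only cultures of the same strain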
- condition: S. cerevisiae rad50 strain growth inhibition; at 50.0 µM (retest, dose inferred, filed as 5.0); active compounds read high
About 79,000 compounds went through this panel and 15% of them were active in at least one assay; those are over-represented in the sample as a whole.
quantity_name: growth inhibition (%)

molecule: C[CH2][Sn][CH2]C.c1cc[c]([Ge]([c]2ccccc2)[c]2ccccc2)cc1.c1cc[c]([Sn]([c]2ccccc2)[c]2ccccc2)cc1
quantity_name: growth inhibition
reading: 96
//
molecule: CC(C)(C)CC(C)(C)c1ccc(O)cc1
quantity_name: growth inhibition
reading: 99
//
molecule: C[CH2][Sn]([CH2]C)([O]S(C)(=O)=O)[O]S(C)(=O)=O
quantity_name: growth inhibition
reading: 57
//
molecule: O=[N+]([O-])c1c(Cl)sc(Cl)c1[N+](=O)[O-]
quantity_name: growth inhibition
reading: 99
//
molecule: Oc1ccc2ccccc2c1O
quantity_name: growth inhibition
reading: 81
//
molecule: CNC(Cc1ccccc1)c1ccc(OC)c(OC)c1 (configuration not stated)
quantity_name: growth inhibition
reading: 95
//
molecule: Sc1ccc(Cl)cc1
quantity_name: growth inhibition
reading: 51
//
molecule: CC12CCC(O)CC1CCC1C2CCC2(C)C1CC1CC(=O)OC12 (configuration not stated)
quantity_name: growth inhibition
reading: 98
//
molecule: CC(C)(C)C1=CC(=C/C=C/c2cc(C(C)(C)C)[o+]c(C(C)(C)C)c2)C=C(C(C)(C)C)O1
quantity_name: growth inhibition
reading: 93
//
molecule: Fc1cccc(C2N(Cc3ccc(N(CCCl)CCCl)cc3Cl)CCCN2Cc2ccc(N(CCCl)CCCl)cc2Cl)c1
quantity_name: growth inhibition
reading: 92
//
molecule: CSc1ccc(NC(=O)C2c3[nH]c4ccccc4c3C3CCC(C(C)(C)C)CC3C2C(=O)O)cc1 (configuration not stated)
quantity_name: growth inhibition
reading: -4
//
molecule: CN(Cc1ccccc1)CC(O)c1ccc(Cl)cc1 (configuration not stated)
quantity_name: growth inhibition
reading: 38
//
molecule: S=c1[nH]c2ccccc2s1
quantity_name: growth inhibition
reading: 45
//
molecule: O=C(OCc1ccccc1)C(C(Cl)c1ccccc1)N(Cc1ccccc1)Cc1ccccc1 (configuration not stated)
quantity_name: growth inhibition
reading: 53
//
molecule: [Cl][Hg][Cl].c1ccc(CSc2ccccc2)cc1
quantity_name: growth inhibition
reading: 99
//
molecule: CCC1(O)C(=O)OCc2c1cc1n(c2=O)Cc2cc3ccccc3nc2-1 (configuration not stated)
quantity_name: growth inhibition
reading: 96
//
molecule: O=C1NC(=S)NC(=O)C1=Cc1ccc([N+](=O)[O-])o1
quantity_name: growth inhibition
reading: 69
//
molecule: CC[CH2][Sn]([F])([F])[CH2]CC
quantity_name: growth inhibition
reading: 94
//
molecule: O=[As]c1ccc([N+](=O)[O-])cc1 (configuration not stated)
quantity_name: growth inhibition
reading: 100
//
molecule: CC(O)([CH2][Hg][Cl])C(O)[CH2][Hg][Cl] (configuration not stated)
quantity_name: growth inhibition
reading: 99
//
molecule: CC1(C)CCC(C)(C)c2cc(Cl)c(O)cc21
quantity_name: growth inhibition
reading: 1
//
molecule: CC(Cc1ccccc1)N(C)Cc1nc(C2CCC([N+](=O)[O-])O2)no1 (configuration not stated)
quantity_name: growth inhibition
reading: 95
//
molecule: CCOC(=O)c1ccccc1N
quantity_name: growth inhibition
reading: 4
//
molecule: CCOP(=O)(O)C(Nc1ccc(N=Nc2ccccc2)cc1)c1cccc(C(Nc2ccc(N=Nc3ccccc3)cc2)P(=O)(O)OCC)c1 (configuration not stated)
quantity_name: growth inhibition
reading: 29
//
molecule: CC1=CC2OC3CC4OC(=O)/C=C/C=C/C(=O)OCCC(C)C(O)C(=O)OCC2(CC1O)C4(C)C31CO1 (configuration not stated)
quantity_name: growth inhibition
reading: 98
//
molecule: N=P(c1ccccc1)(c1ccccc1)c1ccccc1 (tested in a mixture with another compound)
quantity_name: growth inhibition
reading: 32
//
molecule: CCCCCCCC1(c2ccc(N)cc2)CCC(=O)NC1=O (configuration not stated)
quantity_name: growth inhibition
reading: 36
//
molecule: CCOC(=O)C1C2c3ccccc3C(c3ccccc32)C1C(=O)OCC (configuration not stated)
quantity_name: growth inhibition
reading: 77
//
molecule: N#Cc1ccc(N=Cc2c([O-])ccc3ccccc23)cc1.[C-]#[O+].[C-]#[O+].[Ir]
quantity_name: growth inhibition
reading: 8
//
molecule: BrCc1ccc2ncccc2c1
quantity_name: growth inhibition
reading: 98
//
molecule: CCCCCCCCCCCCC(=O)[O][Hg][c]1ccccc1
quantity_name: growth inhibition
reading: 99
//
molecule: Cc1ccccc1C(=O)CN
quantity_name: growth inhibition
reading: -2
//
molecule: COc1cccc(C(Cc2ccc(N3C(N)=NC(N)=NC3(C)C)cc2)C(=O)Nc2ccc(S(=O)(=O)F)cc2)c1 (configuration not stated)
quantity_name: growth inhibition
reading: 96
//
molecule: CC1(C)OC2OC3C(CN(CCCl)Cc4ccccc4)OC(c4ccccc4)OC3C2O1 (configuration not stated)
quantity_name: growth inhibition
reading: 18
//
molecule: O=C(O)C1(c2ccccc2)OC1c1ccccc1 (configuration not stated)
quantity_name: growth inhibition
reading: 67
//
molecule: CCCCN(CCCC)CC(C(C)=O)C(c1ccccc1)c1c(O)c2ccccc2oc1=O (configuration not stated)
quantity_name: growth inhibition
reading: 22
//
molecule: CC(C)=[CH][Sb]([Br])([CH]=C(C)C)([CH]=C(C)C)[c]1ccccc1
quantity_name: growth inhibition
reading: 8
//
molecule: C/C1=C\[C@@H](O)C(=O)/C=C/C=C\c2csc(n2)[C@@H](C)NC(=O)C[C@@]2(CC1)S(=O)SC(=O)[C@]2(C)O (some centres not stated)
quantity_name: growth inhibition
reading: 98
//
molecule: CN[C@H]1C[C@@H]2O[C@@](C)([C@H]1OC)n1c3ccccc3c3c4c(c5c6ccccc6n2c5c31)C(=O)NC4
quantity_name: growth inhibition
reading: 99
//
molecule: CCC1CC2CCC(O2)C(C)C(=O)OC(C)CC2CCC(O2)C(C)C(=O)OC(CC)CC2CCC(O2)C(C)C(=O)OC(C)CC2CCC(O2)C(C)C(=O)O1 (configuration not stated)
quantity_name: growth inhibition
reading: 71
//
molecule: O=S(=O)([O-])[O-].[Fe+2].c1ccc(/C(=N\Nc2ccccn2)c2ccccn2)cc1
quantity_name: growth inhibition
reading: 33
//
molecule: O=C1NC(=O)C([N+](=O)[O-])C(=O)N1
quantity_name: growth inhibition
reading: -5
